- system tested: Udorn His-GST-ED WT (Influenza A virus A/Udorn/307/1972, UniProt P03495 86-237)
- Sequence (P03495 86-237): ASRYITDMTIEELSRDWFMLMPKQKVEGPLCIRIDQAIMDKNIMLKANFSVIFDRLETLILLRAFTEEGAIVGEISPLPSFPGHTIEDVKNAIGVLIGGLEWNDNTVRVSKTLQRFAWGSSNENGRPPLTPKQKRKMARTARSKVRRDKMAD
- protocol notes: EMSA (fEMSA); […], pH 8.0, 1 h at room temperature; […]
- run conditions: protein: recombinant; tags: N-term 10xHis-GST; label: 5'-FAM (FITC) on both strands; blunt
measured parameter: Kd (nM)
Answer in nM, number only, no unit symbol.

query: Please give the documented Kd of FAM-dsRNA 16 bp (dsRNA) RNA 1: CCAUCCUCUACAGGCG RNA 2: CGCCUGUAGAGGAUGG
result: 170
